Recorded pIC50 values for a group of molecules are listed next.
system_under_test: UniProt:A0A509AEH5
Sequence (A0A509AEH5 entry or part of it): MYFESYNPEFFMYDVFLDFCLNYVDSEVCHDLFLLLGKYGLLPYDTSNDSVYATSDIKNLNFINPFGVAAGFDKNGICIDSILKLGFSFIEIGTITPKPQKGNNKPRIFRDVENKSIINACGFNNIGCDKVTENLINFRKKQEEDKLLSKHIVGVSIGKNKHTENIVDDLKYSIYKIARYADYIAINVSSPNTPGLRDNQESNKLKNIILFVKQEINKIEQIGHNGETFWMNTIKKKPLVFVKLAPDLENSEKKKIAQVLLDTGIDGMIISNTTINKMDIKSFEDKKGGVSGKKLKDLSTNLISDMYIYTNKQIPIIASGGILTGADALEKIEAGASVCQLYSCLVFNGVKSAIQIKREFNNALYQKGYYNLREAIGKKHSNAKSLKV
test_details: DHODH enzyme inhibition assay, PbDHODH
Format: biochemical, P. berghei
stated_conditions: Table 4, IC50 class; read-out: PbDHODH
pIC50: −log10 of the molar value.

Guide cases for pIC50, answers given:
Cc1cc(Nc2ccc(C(F)(F)F)c(F)c2)n2ncnc2n1
> 5.70
Cc1cc(Nc2cccc(F)c2)n2ncnc2n1
< 5.00
Cc1cc(Nc2cc(C(F)(F)F)cc(C(F)(F)F)c2)n2ncnc2n1
< 5.00
COc1ccc(Nc2cc(C)nc3ncnn23)cc1
> 5.70
Cc1cc(Nc2ccc(C)c(F)c2)n2ncnc2n1
5.00 to 5.70

Exercise: Item under review: Cc1cc(Nc2ccc(C)c(C)c2)n2ncnc2n1 . Reported pIC50?
Key: 5.00 to 5.70

Exercise: Item under review: Cc1cc(NCCCc2ccccc2)n2ncnc2n1 . Reported pIC50?
Key: < 5.00

Exercise: Item under review: Cc1cc(Nc2ccc(Cl)c(C(F)(F)F)c2)n2ncnc2n1 . Reported pIC50?
Key: > 5.70

Source listed as patent US9216983B2.
